TARGET OR TEST SYSTEM: B2 bradykinin receptor (Homo sapiens)
Sequence (whole entry): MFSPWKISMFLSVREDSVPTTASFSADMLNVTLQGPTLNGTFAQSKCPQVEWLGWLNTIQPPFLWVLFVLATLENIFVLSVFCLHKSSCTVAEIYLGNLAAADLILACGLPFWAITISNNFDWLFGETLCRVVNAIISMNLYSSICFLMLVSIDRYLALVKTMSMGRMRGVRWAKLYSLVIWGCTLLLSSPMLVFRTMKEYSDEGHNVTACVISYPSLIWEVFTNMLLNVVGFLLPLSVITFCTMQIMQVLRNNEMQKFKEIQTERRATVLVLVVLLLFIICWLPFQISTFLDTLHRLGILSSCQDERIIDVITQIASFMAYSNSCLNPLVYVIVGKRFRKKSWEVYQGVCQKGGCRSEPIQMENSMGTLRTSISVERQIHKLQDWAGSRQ
ASSAY METHOD TEXT: Tested for percent inhibition of binding affinity against Bradykinin receptor B2 at 10 uM concentration
MEASURE NAME: inhibition (%)
Value expressed in %; do not type the unit.

Query :: Give the reported inhibition for this compound. CCCC[PH](CCCC)(CCCC)Cc1ccc(NC(=O)C2Cc3ccccc3CN2C(=O)CN/C(=N/C2CCCCC2)NC2CCCCC2)cc1 (stereo not drawn)
Result :: 33

Next:
Query :: Could you please provide reported inhibition for O=C(Nc1ccc(CN/C(=N/C2CCCCC2)NC2CCCCC2)cc1)C1Cc2ccccc2CN1C(=O)CN/C(=N/C1CCCCC1)NC1CCCCC1 (stereo not drawn) ? Thanks!
Result :: 12
